Provide the reported IC50 of each item.
System: THP-1 cells
protocol_description: TNFα generation assay
Type: cell-based, human
experimental_context: Homo sapiens, THP-1, THP-1 cells; Table 22; read-out: IC50 in TNFα generation assay

Prompt line: Consider the molecule Cc1nn(CC(F)F)c2ccc(Nc3nc(NC4CCCCC4N)c(F)cc3C(N)=O)cc12 (stereo not shown) and give its recorded IC50.
Response line: 0.065 to 0.13 µM

Prompt line: Consider the molecule NC(=O)c1cc(F)c(N[C@@H]2CCCC[C@@H]2N)nc1Nc1ccc2nn(CC3CC3)cc2c1 (relative stereo) and give its recorded IC50.
Response line: 0.13 to 0.2 µM

Prompt line: Consider the molecule NC(=O)c1cc(F)c(N[C@@H]2CCCC[C@@H]2N)nc1Nc1cc(-n2ccnn2)nc2[nH]ccc12 (relative stereo) and give its recorded IC50.
Response line: 0.065 to 0.13 µM

Prompt line: Consider the molecule `COc1ccc(F)c(-c2cc(Nc3nc(N[C@@H](CN)CC(C)C)c(F)cc3C(N)=O)ccn2)c1` and give its recorded IC50.
Response line: 0.13 to 0.2 µM
